- measurement-target: Cannabinoid receptor 2 (Mus musculus, UniProt P47936)
- Sequence (P47936 whole entry): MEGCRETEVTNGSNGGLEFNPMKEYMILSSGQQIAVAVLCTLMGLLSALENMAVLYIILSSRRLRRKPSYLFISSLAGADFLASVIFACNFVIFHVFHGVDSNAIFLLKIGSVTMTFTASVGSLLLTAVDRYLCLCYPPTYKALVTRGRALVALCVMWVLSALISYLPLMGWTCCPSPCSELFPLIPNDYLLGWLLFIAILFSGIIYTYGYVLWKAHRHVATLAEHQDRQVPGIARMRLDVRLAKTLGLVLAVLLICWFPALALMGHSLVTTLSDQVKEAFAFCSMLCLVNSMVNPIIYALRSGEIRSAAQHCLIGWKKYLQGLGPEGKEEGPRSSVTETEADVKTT
- procedure-summary: Agonist activity at mouse CB2 receptor transfected in CHO-K1 cells assessed as beta2-arrestin recruitment incubated for 90 mins by luminescence based assay
- Type: functional, cell-based
measurement-type: EC50

chemical_smiles=O=C(NC12CC3CC(CC(C3)C1)C2)c1ccccc1OCc1ccccc1 measurement_target="Cannabinoid receptor 2 (Mus musculus, UniProt P47936)" measurement_type=EC50 reported_result="51.8 nM"
chemical_smiles=CCCCCOc1ccccc1C(=O)NC12CC3CC(CC(C3)C1)C2 measurement_target="Cannabinoid receptor 2 (Mus musculus, UniProt P47936)" measurement_type=EC50 reported_result="23.8 nM"
chemical_smiles=CCCCCCC(C)(C)c1ccc([C@H]2C[C@@H](O)CC[C@@H]2CCCO)c(O)c1 measurement_target="Cannabinoid receptor 2 (Mus musculus, UniProt P47936)" measurement_type=EC50 reported_result="0.4 nM"
chemical_smiles=O=C(NC12CC3CC(CC(C3)C1)C2)c1ccccc1OCC1CCCCC1 measurement_target="Cannabinoid receptor 2 (Mus musculus, UniProt P47936)" measurement_type=EC50 reported_result="10.7 nM"

###

- measurement-target: Cannabinoid receptor 2 (Homo sapiens)
- Sequence (P34972 whole entry): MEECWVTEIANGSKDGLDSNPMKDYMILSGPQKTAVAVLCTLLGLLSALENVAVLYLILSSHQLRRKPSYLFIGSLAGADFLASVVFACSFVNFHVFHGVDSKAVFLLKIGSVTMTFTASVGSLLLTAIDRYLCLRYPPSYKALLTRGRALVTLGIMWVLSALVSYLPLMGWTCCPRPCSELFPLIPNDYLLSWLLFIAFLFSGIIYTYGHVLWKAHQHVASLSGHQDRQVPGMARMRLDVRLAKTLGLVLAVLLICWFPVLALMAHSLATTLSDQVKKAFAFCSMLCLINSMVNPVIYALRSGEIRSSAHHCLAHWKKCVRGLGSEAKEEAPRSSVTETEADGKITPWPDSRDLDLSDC
- procedure-summary: Displacement of [3H]CP55940 from recombinant human CB2 receptor expressed in HEK293 cell membrane incubated for 90 mins by beta scintillation counter method
pKi: −log10 of the molar value.
measurement-type: pKi

chemical_smiles=O=C(NC12CC3CC(CC(C3)C1)C2)c1ccccc1OCc1ccccc1 measurement_type=pKi reported_result=7.83
chemical_smiles=O=C(NC12CC3CC(CC(C3)C1)C2)c1ccccc1OCC1CCCCC1 measurement_type=pKi reported_result=7.70
chemical_smiles=COc1ccc(C(=O)NC23CC4CC(CC(C4)C2)C3)cc1 measurement_type=pKi reported_result=5.61
